Tested on: PC-12
Test: Neuroprotective activity against NaN3-induced cell injury in rat PC12 cells assessed as cell survival rate at 5 uM measured after 24 hrs by CCK-8 assay (reference value: 49.9 to 52%)
Assay type: functional
Details: read-out: Survival
parameter: viability at 5 µM

Worked set:
- smiles-data: "C#CC#C[C@H](O)c1ccccc1"
  viability at 5 µM: "47.8%"
- smiles-data: "CCCCCCCCC[C@H](C#CC#C[Si](C(C)C)(C(C)C)C(C)C)OC(=O)c1ccccc1"
  viability at 5 µM: "50.4%"
- smiles-data: "CCCCCCCCC[C@@H](O)C#CC#C[Si](C(C)C)(C(C)C)C(C)C"
  viability at 5 µM: "49.4%"
- smiles-data: "CC(C)[Si](C#CC#C[C@H](O)c1ccccc1)(C(C)C)C(C)C"
  viability at 5 µM: "60.1%"

Look up and report viability at 5 µM, with PC-12 as system, for CCCCCCCCC[C@H](C#CC#C[C@H](O)c1ccccc1)OC(=O)c1ccccc1
65.6%

* * *

Test system: PC-12
Test: Neuroprotective activity against NaN3-induced cell injury in rat PC12 cells assessed as cell survival rate at 20 uM measured after 24 hrs by CCK-8 assay (reference value: 49.9 to 52%)
Format: functional
Settings: read-out: Survival
parameter: viability at 20 µM (%)
Number only, in %; omit the unit.

Recorded results for 4 molecules are shown here.
- smiles-data: "C#CC#C[C@H](O)c1ccccc1"
  measurement-target: "PC-12"
  readout-units: "%"
  viability at 20 µM: 55
- smiles-data: "CCCCCCCCC[C@@H](O)C#CC#C[Si](C(C)C)(C(C)C)C(C)C"
  measurement-target: "PC-12"
  readout-units: "%"
  viability at 20 µM: 46.2
- smiles-data: "CC(C)[Si](C#CC#C[C@H](O)c1ccccc1)(C(C)C)C(C)C"
  measurement-target: "PC-12"
  readout-units: "%"
  viability at 20 µM: 58
- smiles-data: "CCCCCCCCC[C@H](C#CC#C[C@H](O)c1ccccc1)OC(=O)c1ccccc1"
  measurement-target: "PC-12"
  readout-units: "%"
  viability at 20 µM: 61.3

State measured viability at 20 µM of the molecule CCCCCCCCC[C@H](C#CC#C[Si](C(C)C)(C(C)C)C(C)C)OC(=O)c1ccccc1 with PC-12.
47.5

* * *

Target: Cav1.2 (L-type calcium channel alpha1c/beta2a/alpha2delta1) (Homo sapiens, UniProt P54289+Q08289+Q13936)
Sequence (P54289 25-956 limits assumed): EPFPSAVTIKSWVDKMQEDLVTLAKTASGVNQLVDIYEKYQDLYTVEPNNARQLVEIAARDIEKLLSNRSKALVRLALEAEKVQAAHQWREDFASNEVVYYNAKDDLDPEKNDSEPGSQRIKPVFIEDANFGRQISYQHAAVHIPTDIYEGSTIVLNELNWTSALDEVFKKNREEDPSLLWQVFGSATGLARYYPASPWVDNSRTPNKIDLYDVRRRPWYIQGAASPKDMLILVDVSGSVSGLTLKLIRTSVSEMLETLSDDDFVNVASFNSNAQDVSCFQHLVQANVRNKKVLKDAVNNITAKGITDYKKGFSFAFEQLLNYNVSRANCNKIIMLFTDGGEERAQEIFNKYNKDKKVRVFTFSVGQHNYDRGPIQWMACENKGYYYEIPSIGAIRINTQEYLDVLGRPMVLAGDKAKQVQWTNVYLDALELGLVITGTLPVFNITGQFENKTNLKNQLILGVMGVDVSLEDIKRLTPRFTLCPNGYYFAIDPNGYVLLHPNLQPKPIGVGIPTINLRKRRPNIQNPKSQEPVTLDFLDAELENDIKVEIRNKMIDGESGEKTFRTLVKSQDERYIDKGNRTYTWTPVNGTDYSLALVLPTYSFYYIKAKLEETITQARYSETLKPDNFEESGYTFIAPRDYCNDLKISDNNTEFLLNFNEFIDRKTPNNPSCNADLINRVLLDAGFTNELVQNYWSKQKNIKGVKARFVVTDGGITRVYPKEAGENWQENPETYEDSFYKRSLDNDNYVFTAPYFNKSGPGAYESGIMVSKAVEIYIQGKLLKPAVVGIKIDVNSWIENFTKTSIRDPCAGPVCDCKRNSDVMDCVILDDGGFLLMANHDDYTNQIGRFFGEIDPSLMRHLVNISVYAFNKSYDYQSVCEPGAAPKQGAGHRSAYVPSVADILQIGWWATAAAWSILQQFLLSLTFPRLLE
Sequence (P54289 957-1103 limits assumed): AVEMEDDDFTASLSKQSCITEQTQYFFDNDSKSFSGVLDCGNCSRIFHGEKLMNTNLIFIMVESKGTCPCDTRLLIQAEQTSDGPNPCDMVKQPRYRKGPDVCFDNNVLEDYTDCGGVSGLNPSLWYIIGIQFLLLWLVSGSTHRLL
Sequence (Q08289 whole entry): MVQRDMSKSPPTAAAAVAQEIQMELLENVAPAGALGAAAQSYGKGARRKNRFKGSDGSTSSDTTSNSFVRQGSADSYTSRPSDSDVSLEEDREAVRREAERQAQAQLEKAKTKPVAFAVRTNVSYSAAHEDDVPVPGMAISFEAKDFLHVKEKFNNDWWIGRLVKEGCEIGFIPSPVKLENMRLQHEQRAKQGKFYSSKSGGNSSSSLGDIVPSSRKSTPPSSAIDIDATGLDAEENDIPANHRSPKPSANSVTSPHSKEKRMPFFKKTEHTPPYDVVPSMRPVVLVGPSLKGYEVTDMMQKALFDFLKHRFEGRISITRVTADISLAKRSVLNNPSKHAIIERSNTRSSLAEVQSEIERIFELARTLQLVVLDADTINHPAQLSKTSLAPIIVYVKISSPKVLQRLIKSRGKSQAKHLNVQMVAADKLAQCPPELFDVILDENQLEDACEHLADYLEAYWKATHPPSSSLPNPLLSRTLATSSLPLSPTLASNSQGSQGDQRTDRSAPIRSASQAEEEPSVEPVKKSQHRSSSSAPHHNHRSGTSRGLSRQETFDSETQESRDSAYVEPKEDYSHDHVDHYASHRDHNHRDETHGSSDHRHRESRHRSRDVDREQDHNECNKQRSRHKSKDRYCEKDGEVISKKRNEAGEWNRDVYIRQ
Sequence (Q13936 whole entry): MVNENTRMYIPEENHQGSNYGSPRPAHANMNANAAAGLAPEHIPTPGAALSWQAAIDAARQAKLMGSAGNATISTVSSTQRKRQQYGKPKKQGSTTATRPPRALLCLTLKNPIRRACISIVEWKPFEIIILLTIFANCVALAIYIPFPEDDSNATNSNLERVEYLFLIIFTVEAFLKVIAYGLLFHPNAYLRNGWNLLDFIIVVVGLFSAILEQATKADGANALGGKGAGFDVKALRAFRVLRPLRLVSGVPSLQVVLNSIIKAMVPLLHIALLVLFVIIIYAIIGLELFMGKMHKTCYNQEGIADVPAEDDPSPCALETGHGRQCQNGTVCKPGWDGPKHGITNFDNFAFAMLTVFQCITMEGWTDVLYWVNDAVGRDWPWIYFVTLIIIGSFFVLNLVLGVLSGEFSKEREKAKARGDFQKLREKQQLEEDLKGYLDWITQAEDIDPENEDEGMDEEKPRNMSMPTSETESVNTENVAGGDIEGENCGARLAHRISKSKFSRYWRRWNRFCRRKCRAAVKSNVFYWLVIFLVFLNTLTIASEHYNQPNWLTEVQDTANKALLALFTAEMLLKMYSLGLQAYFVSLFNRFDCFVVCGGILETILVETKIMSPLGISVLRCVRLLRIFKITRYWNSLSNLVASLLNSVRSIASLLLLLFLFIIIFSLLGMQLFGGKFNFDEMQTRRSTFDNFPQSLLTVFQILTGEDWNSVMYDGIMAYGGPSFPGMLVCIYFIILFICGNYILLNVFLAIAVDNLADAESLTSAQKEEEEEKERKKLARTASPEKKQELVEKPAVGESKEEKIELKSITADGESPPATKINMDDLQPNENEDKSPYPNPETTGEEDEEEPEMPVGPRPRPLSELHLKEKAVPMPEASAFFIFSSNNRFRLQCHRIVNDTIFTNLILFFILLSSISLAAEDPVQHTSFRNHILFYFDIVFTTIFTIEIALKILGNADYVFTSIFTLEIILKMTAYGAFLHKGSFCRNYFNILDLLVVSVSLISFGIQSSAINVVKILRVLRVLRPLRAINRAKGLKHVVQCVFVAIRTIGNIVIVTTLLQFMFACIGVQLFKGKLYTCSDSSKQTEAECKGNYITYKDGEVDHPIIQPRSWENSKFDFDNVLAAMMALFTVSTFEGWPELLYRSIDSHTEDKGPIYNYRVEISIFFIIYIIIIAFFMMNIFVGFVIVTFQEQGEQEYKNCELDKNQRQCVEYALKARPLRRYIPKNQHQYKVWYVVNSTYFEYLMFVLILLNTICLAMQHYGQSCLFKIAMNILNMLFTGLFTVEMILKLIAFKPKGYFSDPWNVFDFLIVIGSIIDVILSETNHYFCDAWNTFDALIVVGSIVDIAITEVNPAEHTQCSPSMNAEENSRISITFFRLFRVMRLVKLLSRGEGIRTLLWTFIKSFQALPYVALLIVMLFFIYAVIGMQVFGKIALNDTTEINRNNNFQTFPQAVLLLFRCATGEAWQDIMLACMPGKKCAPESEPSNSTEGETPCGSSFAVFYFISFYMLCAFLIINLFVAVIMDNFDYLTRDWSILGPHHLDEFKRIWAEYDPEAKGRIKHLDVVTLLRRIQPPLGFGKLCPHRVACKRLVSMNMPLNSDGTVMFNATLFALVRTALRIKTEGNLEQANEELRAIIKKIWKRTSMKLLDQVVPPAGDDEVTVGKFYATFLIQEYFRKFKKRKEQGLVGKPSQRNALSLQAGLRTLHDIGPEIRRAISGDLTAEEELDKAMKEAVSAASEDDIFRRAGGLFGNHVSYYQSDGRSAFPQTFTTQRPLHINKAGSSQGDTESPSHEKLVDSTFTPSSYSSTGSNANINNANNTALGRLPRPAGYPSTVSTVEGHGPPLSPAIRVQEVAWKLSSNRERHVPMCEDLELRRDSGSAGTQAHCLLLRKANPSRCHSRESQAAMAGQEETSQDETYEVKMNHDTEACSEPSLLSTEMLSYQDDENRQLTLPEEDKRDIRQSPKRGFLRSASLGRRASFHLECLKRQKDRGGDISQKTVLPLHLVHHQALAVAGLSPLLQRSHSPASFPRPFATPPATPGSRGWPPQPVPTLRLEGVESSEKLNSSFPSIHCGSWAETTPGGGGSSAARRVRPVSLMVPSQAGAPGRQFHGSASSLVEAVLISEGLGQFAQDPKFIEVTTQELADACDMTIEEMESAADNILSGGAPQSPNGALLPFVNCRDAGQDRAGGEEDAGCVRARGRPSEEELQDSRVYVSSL
Test: Inhibition of human alpha1c/beta2a/alpha2delta1 Cav1.2 expressed in HEK293 cells assessed as time course of inhibition of membrane potential measured after washout with external solution at 100 uM by manual patch clamp technique
Type: cell-based
parameter: inhibition at 100 µM (%)
Unit % implied. Number only.

- smiles-data: "CC(C)[Si](C#CC#C[C@H](O)c1ccccc1)(C(C)C)C(C)C"
  readout-units: "%"
  inhibition at 100 µM: 79.7

# evaluate next
Identify measured inhibition at 100 µM associated with C=C[C@@H](O)C#CC#CC/C=C\CCCCCCC
61.6

* * *

Molecular target: Cav1.2 (L-type calcium channel alpha1c/beta2a/alpha2delta1) (Homo sapiens, UniProt P54289+Q08289+Q13936)
Assay: Inhibition of human alpha1c/beta2a/alpha2delta1 Cav1.2 expressed in HEK293 cells assessed as time course of inhibition of membrane potential measured after washout with external solution at 30 uM by manual patch clamp technique
Assay type: cell-based
parameter: inhibition at 30 µM
// return the numeric value with its unit appended

- smiles-data: "C=C[C@@H](O)C#CC#CC/C=C\\CCCCCCC"
  inhibition at 30 µM: "28.1%"

Supply inhibition at 30 µM value. Item: CC(C)[Si](C#CC#C[C@H](O)c1ccccc1)(C(C)C)C(C)C
38.6%

* * *

Tested on: PC-12
Assay: Neuroprotective activity against NaN3-induced cell injury in rat PC12 cells assessed as cell survival rate at 10 uM measured after 24 hrs by CCK-8 assay (reference value: 49.9 to 52%)
Assay type: functional
Settings: read-out: Survival
Labelling: viability at 10 µM reported below 50% becomes y; at or above becomes n.

- smiles-data: "CCCCCCCCC[C@@H](O)C#CC#C[Si](C(C)C)(C(C)C)C(C)C"
  assigned-label: "y"
- smiles-data: "CCCCCCCCC[C@H](C#CC#C[Si](C(C)C)(C(C)C)C(C)C)OC(=O)c1ccccc1"
  assigned-label: "y"
- smiles-data: "CC(C)[Si](C#CC#C[C@H](O)c1ccccc1)(C(C)C)C(C)C"
  assigned-label: "n"
- smiles-data: "CCCCCCCCC[C@H](C#CC#C[C@H](O)c1ccccc1)OC(=O)c1ccccc1"
  assigned-label: "n"

Please look at the following molecule next.
Does the reported viability at 10 µM of C#CC#C[C@H](O)c1ccccc1 stay below 50%?
n
